Entry source: patent US7825134B2

method: Aqueous solubility at room temperature
Format: physicochemical
settings: water with 1% w/v propylene glycol, water, thermodynamic from solid, Water + 1% w/v propylene glycol, room temperature
measure_name: solubility (mg/mL)
Express your answer in mg/mL, writing the number without its unit.

Name the recorded solubility for CC1(C)CC(OC(=O)C2CC2)CC(C)(C)N1O.Cl .
63.8

###

method: Aqueous solubility at room temperature
Assay type: physicochemical
settings: water, thermodynamic from solid, room temperature
Where a name gives a salt, the structure may show the parent alone.
measure_name: solubility

>>> df
                                   compound  recorded_measurement
0  CC1(C)CC(OC(=O)C2CCOC2)CC(C)(C)N1O.Cl (stereo not shown)            > 35 mg/mL
1  CC1(C(=O)OC2CC(C)(C)N(O)C(C)(C)C2)CC1.Cl             ≥ 1 mg/mL
2       CC1(C)CC(OC(=O)C2CC2)CC(C)(C)N1O.Cl            74.9 mg/mL

Lab note: next compound to report on.
Name the recorded solubility for CC(C)(CO)C(=O)OC1CC(C)(C)N(O)C(C)(C)C1 [Example 10, Hydrochloride] .
> 35 mg/mL
